system: HCT-8 cells; experiment: In vitro cytotoxicity MTS assay on host cells; format: cell-based, human; details: human, 41 h
readout.kind: TC50 (µM)
Write the answer as a number in µM, unit excluded.

Let me know recorded TC50 for COc1cccc2c1C(=O)c1c(O)c3c(c(O)c1C2=O)C[C@@](O)(C(C)=O)C[C@@H]3O[C@H]1C[C@H](N)[C@H](O)[C@H](C)O1 [Daunorubicin, reference compound] , thanks. 42.6

State, in one line, measured TC50 of CC1(C)C(=O)C=C[C@@]2(C)C1=C(O)C(=O)[C@]1(C)[C@@H]2CC[C@@]2(C)[C@H](c3ccoc3)C[C@H]3O[C@]321 3.59

Query TC50 for CC(C)=CCCC1(C)C=Cc2c(O)c3c(c(CC=C(C)C)c2O1)OC12C(=CC4CC1C(C)(C)OC2(C/C=C(/C)C(=O)O)C4O)C3=O (centres unmarked) [Dihydrogambogic acid] 6.31

Quote TC50 reported for Cc1cccc2c3c(ccc12)C1=C(C(=O)C3=O)[C@@H](C)CO1 [Dihydrotanshinone I] please. 25.0

---

test system: HCT-8 host cells (Hs18S); conditions: primary screening at 10 uM, from Hs18S ΔCT
Kindly return true (1) if reported Cytotoxicity (%) is no lower than -10%; return false (0) if it is lower.

Confirm if Cytotoxicity (%) reported for the substance BERBAMINE HYDROCHLORIDE is -10% or above. false (0)

Determine whether this substance has Cytotoxicity (%) no lower than -10%: AVOCATIN B true (1)

Given the entry LYSINE (L) HYDROCHLORIDE , answer whether its Cytotoxicity (%) meets or surpasses -10%. false (0)

Hi team, for POMIFERIN TRIMETHYL ETHER , is the recorded Cytotoxicity (%) at or above -10%? true (1)

Is reported Cytotoxicity (%) greater than or equal to -10% here: COLISTIN SULFATE true (1)

Assess whether reported Cytotoxicity (%) for CYANOCOBALAMIN sits at -10% or higher. false (0)

Has KHAYANTHONE a recorded Cytotoxicity (%) greater than or equal to -10%? true (1)

Quick check: does AGELASINE (stereochemistry of diterpene unknown) have Cytotoxicity (%) greater than or equal to -10%? true (1)

For this substance, is measured Cytotoxicity (%) -10% or higher? AVERMECTIN A1a true (1)

Given the entry IVERMECTIN , answer whether its Cytotoxicity (%) meets or surpasses -10%. true (1)

hey, is Cytotoxicity (%) for this one >= -10%? ABAMECTIN (avermectin B1a shown) true (1)

Please tell me: is the substance STROPH[…] LACTONE ACETATE at or over -10% in terms of Cytotoxicity (%)? true (1)

Is reported Cytotoxicity (%) greater than or equal to -10% here: POLYMYXIN B SULFATE false (0)

Quick check, Cytotoxicity (%) >= -10%? BICUCULLINE(-) METHIODIDE true (1)

Test whether the substance BLEOMYCIN (bleomycin B2 shown) records Cytotoxicity (%) of -10% or higher. false (0)

---

Record form. Attribute: Cytotoxicity (%). Fill in for each entry.
tested on: HCT-8 host cells (Hs18S); settings: primary screening at 10 uM, from Hs18S ΔCT
Counter-ions that a name gives are not always drawn.
Quick note: give the figure in %, leave out the unit.

Quick one: give measured Cytotoxicity (%) for COc1ccc(-c2coc3cc(O)cc(O)c3c2=O)cc1 6.9

Report Cytotoxicity (%), nothing else, for this compound: CC(C)c1c(O)c(-c2cc3c(c(C(C)C)c2O)CCC2C(C)(C)CCC[C@]32C)cc2c1CCC1C(C)(C)CCC[C@]21C (stereo partly drawn) 2.5

Assign Cytotoxicity (%) to the following record: C=CC[S+]([O-])C[C@H](N)C(=O)O (mixture of isomers) [L(+/-)-ALLIIN] -12.5

For the compound C=CCCCCCCCCCCCc1ccco1 , give its measured Cytotoxicity (%) value. -32.5

Return Cytotoxicity (%) for the following compound: NC(=O)CC[C@H](N)C(=O)O -11.8

For the compound COC(=O)/C=C/c1cc(OC)c(OC)c(OC)c1 [METHYL TRIMETHOXYCINNAMATE] , give its measured Cytotoxicity (%) value. 2.8

Dear colleague, please send me the reported Cytotoxicity (%) for COc1ccc2c(=O)c(-c3ccc(O)cc3)coc2c1 when you can. -21.7

Please list Cytotoxicity (%) recorded for the compound CC1(C)C2CC(=O)[C@]3(C)C(CC[C@@]4(C)[C@H](c5ccoc5)OC(=O)[C@H]5O[C@]543)[C@@]2(C)C(=O)C[C@H]1O (stereo partly drawn) -6.9

Please give the documented Cytotoxicity (%) of C[C@@H](O)[C@H](N)C(=O)O -19.5

Indicate its recorded Cytotoxicity (%); the compound in question is CC[C@H]1OC(=O)C[C@@H](O)[C@H](C)[C@@H](O[C@@H]2O[C@H](C)[C@@H](O[C@H]3C[C@@](C)(O)[C@@H](O)[C@H](C)O3)[C@H](N(C)C)[C@H]2O)[C@@H](CC=O)C[C@@H](C)C(=O)/C=C/C(C)=C/[C@@H]1CO[C@@H]1O[C@H](C)[C@@H](O)[C@@H](OC)[C@H]1OC [TYLOSIN TARTRATE] -14.2

For C[C@]12CCC(=O)C[C@@H]1CC[C@@H]1[C@@H]2CC[C@]2(C)C(=O)CC[C@@H]12 , write its Cytotoxicity (%). -0.1

Hello, please tell me recorded Cytotoxicity (%) for this one: C[C@@H]1CC[C@@]2(OC1)O[C@H]1C[C@H]3[C@@H]4CC[C@@H]5C[C@@H](O)CC[C@]5(C)[C@H]4CC[C@]3(C)[C@H]1[C@@H]2C 33.2

In one line, give reported Cytotoxicity (%) of the entry O=C(/C=C/c1ccc(O)cc1)c1ccccc1O [2',4-DIHYDROXYCHALCONE] . 8.3

Specify Cytotoxicity (%) for C=C[C@@]1(C)CC(=O)[C@@]2(O)[C@](C)(O1)[C@@H](O)[C@@H](O)C1C(C)(C)CC[C@H](O)[C@@]12C (stereo partly drawn) and stop. 14.3

Report Cytotoxicity (%) for COc1ccc(-c2oc3ccccc3c(=O)c2OC)cc1 22.3
